Biological target: T1, Macaca fascicularis IL2Rγ extracellular domain expressed with a C-terminal myc-myc-hexahistidine tag (Macaca fascicularis)
T1 construct: also called mfIL-2Rg-MMH; mfIL-2RG-MMH
T1 chain: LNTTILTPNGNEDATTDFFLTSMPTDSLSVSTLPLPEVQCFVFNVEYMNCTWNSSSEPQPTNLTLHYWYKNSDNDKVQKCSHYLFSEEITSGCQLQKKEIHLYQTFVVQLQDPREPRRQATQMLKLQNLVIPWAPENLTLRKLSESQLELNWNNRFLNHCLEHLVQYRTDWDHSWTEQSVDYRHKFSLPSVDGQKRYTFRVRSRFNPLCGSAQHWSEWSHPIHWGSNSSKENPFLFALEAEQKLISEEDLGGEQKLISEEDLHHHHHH
Assay: SPR, captured mAb, 25C, dissociation pH 6.0
Classification field: enter TRUE for 100 nM Ag Bound (RU) values not below 100 RU, FALSE for values below it.

binder	label_class
H4H12886P (antibody, human IgG4 S228P, kappa, V domains shown, anti-IL2Rgamma mAb expressed with human IgG4 Fc) VH: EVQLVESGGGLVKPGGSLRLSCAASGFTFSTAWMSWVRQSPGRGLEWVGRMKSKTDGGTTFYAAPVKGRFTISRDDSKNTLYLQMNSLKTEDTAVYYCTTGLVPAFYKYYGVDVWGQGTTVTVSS VL: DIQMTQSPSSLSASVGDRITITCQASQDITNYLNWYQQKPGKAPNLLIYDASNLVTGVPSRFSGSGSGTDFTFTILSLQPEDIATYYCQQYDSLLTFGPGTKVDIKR	FALSE
H4H12899P (antibody, human IgG4 S228P, kappa, V domains shown, anti-IL2Rgamma mAb expressed with human IgG4 Fc) VH: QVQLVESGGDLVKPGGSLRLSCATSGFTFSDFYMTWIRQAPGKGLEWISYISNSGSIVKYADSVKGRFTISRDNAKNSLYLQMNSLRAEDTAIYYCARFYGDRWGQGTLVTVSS VL: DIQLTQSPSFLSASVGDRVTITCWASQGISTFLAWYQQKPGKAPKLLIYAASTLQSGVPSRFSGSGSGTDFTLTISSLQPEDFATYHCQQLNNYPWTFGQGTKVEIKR	FALSE
H4H12863P (antibody, human IgG4 S228P, kappa, V domains shown, anti-IL2Rgamma mAb expressed with human IgG4 Fc) VH: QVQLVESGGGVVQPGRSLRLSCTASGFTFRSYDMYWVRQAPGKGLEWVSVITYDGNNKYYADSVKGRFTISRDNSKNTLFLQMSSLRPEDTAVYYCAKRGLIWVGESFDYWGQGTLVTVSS VL: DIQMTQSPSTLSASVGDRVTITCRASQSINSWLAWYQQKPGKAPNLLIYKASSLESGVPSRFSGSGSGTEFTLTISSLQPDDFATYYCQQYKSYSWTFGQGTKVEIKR	TRUE
H4H12871P (antibody, human IgG4 S228P, kappa, V domains shown, anti-IL2Rgamma mAb expressed with human IgG4 Fc; also called REGN9434) VH: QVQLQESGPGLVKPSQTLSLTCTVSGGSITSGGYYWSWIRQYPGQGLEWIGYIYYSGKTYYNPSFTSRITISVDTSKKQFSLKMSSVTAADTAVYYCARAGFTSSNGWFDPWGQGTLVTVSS VL: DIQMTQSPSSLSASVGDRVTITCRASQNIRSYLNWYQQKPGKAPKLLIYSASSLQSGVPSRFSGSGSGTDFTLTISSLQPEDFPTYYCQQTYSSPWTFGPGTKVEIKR	TRUE
H4H12884P (antibody, human IgG4 S228P, kappa, V domains shown, anti-IL2Rgamma mAb expressed with human IgG4 Fc) VH: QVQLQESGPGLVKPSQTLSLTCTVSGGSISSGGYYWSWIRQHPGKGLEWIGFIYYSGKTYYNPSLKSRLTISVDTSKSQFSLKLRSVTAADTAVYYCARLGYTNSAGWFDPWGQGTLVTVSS VL: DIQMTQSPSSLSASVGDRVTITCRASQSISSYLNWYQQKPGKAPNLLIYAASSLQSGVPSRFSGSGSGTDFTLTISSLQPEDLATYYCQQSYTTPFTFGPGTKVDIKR	TRUE
H4H12874P (antibody, human IgG4 S228P, kappa, V domains shown, anti-IL2Rgamma mAb expressed with human IgG4 Fc) VH: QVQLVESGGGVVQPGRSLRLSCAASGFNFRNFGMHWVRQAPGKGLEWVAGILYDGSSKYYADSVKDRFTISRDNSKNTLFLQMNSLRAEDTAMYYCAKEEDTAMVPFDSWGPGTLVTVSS VL: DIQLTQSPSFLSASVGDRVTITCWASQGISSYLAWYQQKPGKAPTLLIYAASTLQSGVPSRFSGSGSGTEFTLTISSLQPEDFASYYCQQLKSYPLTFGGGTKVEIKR	FALSE

src = patent US20200247894A1
